I'd appreciate it if you could supply log10(solubility) values for the items below.
# assay details: Water solubility of PBICs
# Type: physicochemical
# experimental conditions: water; parent drug by itself
Log10 applied to solubility; unit prior to transform: µg/mL.

Fill in reported log10(solubility) for this entry: `COc1ccc2c(c1)c(CC(=O)O)c(C)n2C(=O)c1ccc(Cl)cc1`
-0.05

Supply reported log10(solubility) belonging to this molecule: `O=C(O)c1cc(/N=N/c2ccc(S(=O)(=O)Nc3ccccn3)cc2)ccc1O`
0.00

Specify measured log10(solubility) for `N[C@@H](Cc1cc(I)c(Oc2cc(I)c(O)c(I)c2)c(I)c1)C(=O)O` .
-0.70

Quickly give me recorded log10(solubility) for `CC(C)OC(=O)CCC/C=C\C[C@@H]1[C@@H](CC[C@@H](O)CCc2ccccc2)[C@H](O)C[C@@H]1O`
0.90

State its log10(solubility) for this molecule: `O=C(O)c1cc(-c2ccc(F)cc2F)ccc1O`
1.16

# return recorded log10(solubility) for entry `CCCCC[C@H](O)CC[C@@H]1[C@H]2Cc3cccc(OCC(=O)O)c3C[C@H]2C[C@H]1O`
0.85

Identify measured log10(solubility) corresponding to `CC(C)OC(=O)CCC/C=C\C[C@@H]1[C@@H](/C=C/[C@@H](O)COc2cccc(C(F)(F)F)c2)[C@H](O)C[C@@H]1O`
0.85

Consider the molecule NCC(CC(=O)O)c1ccc(Cl)cc1 (centres unmarked) . State its measured log10(solubility).
2.85

State, in one line, measured log10(solubility) of `C[C@H](CS)C(=O)N1CCC[C@H]1C(=O)O`
5.20

# return recorded log10(solubility) for entry CC(O)CC(=O)O (racemic) [3-hydroxybutyric acid]
5.65

Please list log10(solubility) recorded for the molecule C[C@@H](O)CC(=O)O [R-3-Hydroxybutyric acid, (R)-3-hydroxybutyric acid]
5.65

###

Would you mind telling me the reported Papp B→A of each entry?
# assay details: Caco-2 cell permeability
# experimental conditions: human, Caco-2
Express it in ×10⁻⁶ cm/s; write the number only.

Note down Papp B→A recorded for CC[C@H]1[C@@H](O)[C@@H]2[C@H](CC[C@]3(C)[C@@H]([C@H](C)CCC(=O)O)CC[C@@H]23)[C@@]2(C)CC[C@@H](O)C[C@@H]12 [Obeticholic acid, reference compound]
3.23

Entry O=C(O)Cc1ccccc1Nc1c(Cl)cccc1Cl [Diclofenac, reference compound] needs its Papp B→A filled in; supply it.
13.5

Give a short answer stating reported Papp B→A for CC(C)Cc1ccc(C(C)C(=O)O)cc1 (stereo not drawn) [Ibuprofen, reference compound] .
19
